Where do these numbers come from? They come from patent US9481676B2.

Target: human recombinant serotonin (5-Hydroxytryptamine) 5-HT2A receptor (Homo sapiens)
Construct: expressed in transfected cells; host or cells: CHO-K1 cells
Assay: Serotonin 5-HT2A radioligand binding ([3H]Ketanserin)
Settings: compound at 1 μM; read-out: Serotonin (1 μM) 5-HT2A, percent inhibition of specific binding
quantity: inhibition at 1 µM (%)
The figure you give is taken to be in %; do not add the unit.

{"columns": ["molecule", "tested on", "inhibition at 1 µM [%]"],
 "data": [
  ["C/C(=C/n1c2c(c3cc(Cl)ccc31)CCN(C)CC2)c1ccccc1Cl [Compound No. 244]", "human recombinant serotonin (5-Hydroxytryptamine) 5-HT2A receptor (Homo sapiens)", 100],
  ["CN1CCc2c(n(CCc3ccccc3)c3ccc(Cl)cc23)CC1 [Compound No. 56]", "human recombinant serotonin (5-Hydroxytryptamine) 5-HT2A receptor (Homo sapiens)", 97],
  ["COc1ccc(/C(C)=C/n2c3c(c4cc(Cl)ccc42)CCN(C)CC3)cc1F [Compound No. 157]", "human recombinant serotonin (5-Hydroxytryptamine) 5-HT2A receptor (Homo sapiens)", 98]
]}

Okay, next one:
Name the reported inhibition at 1 µM value associated with the molecule Cc1ccc2c(c1)c1c(n2CCc2ccccc2Cl)CCN(C)CC1 [Compound No. 69]
52

====

Molecular target: human recombinant dopamine D2L receptor (Homo sapiens, UniProt P14416)
Construct: expressed in transfected cells; host or cells: CHO cells
Sequence (P14416 whole entry): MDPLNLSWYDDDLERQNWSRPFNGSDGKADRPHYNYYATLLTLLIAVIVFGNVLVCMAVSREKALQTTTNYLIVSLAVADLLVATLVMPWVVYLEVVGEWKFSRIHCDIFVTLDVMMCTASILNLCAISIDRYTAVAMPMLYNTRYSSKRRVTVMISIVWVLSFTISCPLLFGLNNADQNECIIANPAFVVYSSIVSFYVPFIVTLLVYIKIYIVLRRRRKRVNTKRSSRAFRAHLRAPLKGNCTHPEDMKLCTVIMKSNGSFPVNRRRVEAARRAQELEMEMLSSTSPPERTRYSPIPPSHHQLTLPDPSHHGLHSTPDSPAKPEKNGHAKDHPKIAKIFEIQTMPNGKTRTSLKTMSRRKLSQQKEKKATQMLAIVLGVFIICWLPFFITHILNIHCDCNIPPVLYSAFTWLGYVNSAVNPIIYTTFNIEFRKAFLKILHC
Assay: Dopamine D2L radioligand binding ([3H]Spiperone)
Settings: compound at 1 μM; read-out: Dopamine (1 μM) D2L, percent inhibition of specific binding
quantity: inhibition at 1 µM (%)
The figure you give is taken to be in %; do not add the unit.

Field: example entries. Status: answers known.
{"columns": ["smiles record", "readout unit", "inhibition at 1 µM"],
 "data": [
  ["C/C(=C/n1c2c(c3cc(C)ccc31)CCN(C)CC2)c1cccc(F)c1", "%", 35],
  ["CN1CCc2c(n(/C=C/c3ccc(F)c(F)c3)c3ccc(Cl)cc23)CC1", "%", 34]
]}

Okay, next one:
Name the reported inhibition at 1 µM value associated with the molecule CN1CCc2c(n(CCc3ccc(Cl)cc3)c3ccc(Cl)cc23)CC1
53

====

Target: human recombinant adrenergic α1D receptor (Homo sapiens)
Construct: expressed in transfected cells; host or cells: HEK-293 cells
Sequence (P25100 1-572): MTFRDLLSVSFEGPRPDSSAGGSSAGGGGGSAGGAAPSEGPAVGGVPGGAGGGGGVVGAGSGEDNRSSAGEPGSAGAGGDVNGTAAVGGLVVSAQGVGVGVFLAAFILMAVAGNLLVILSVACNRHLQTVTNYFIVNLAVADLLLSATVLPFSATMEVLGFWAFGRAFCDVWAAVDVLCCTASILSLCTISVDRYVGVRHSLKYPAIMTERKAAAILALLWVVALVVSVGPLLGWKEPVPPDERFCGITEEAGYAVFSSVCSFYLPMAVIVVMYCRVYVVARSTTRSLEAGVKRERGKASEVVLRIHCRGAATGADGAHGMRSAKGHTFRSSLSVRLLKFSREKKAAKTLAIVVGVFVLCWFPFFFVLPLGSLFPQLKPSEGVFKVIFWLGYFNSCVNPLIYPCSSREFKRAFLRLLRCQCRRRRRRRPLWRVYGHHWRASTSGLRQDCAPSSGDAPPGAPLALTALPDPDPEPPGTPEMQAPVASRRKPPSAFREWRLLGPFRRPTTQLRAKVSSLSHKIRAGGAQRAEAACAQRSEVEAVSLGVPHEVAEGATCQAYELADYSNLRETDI
Experiment: Adrenergic alpha1D radioligand binding ([3H]Prozosin)
Details: compound at 1 μM; read-out: Adrenergic (1 μM) α1D, percent inhibition of specific binding
Outcome label depends on inhibition at 1 µM relative to 60%: at/above gives True, below gives False.

Form field: inhibition at 1 µM at least 60%? Entry: CN1CCc2c(n(CC(O)c3cccnc3)c3ccc(Cl)cc23)CC1 (centres unmarked)
False

Form field: inhibition at 1 µM at least 60%? Entry: Cc1ccc2c(c1)c1c(n2CC(O)c2ccccc2)CCN(C)CC1 (centres unmarked)
True

Form field: inhibition at 1 µM at least 60%? Entry: C/C(=C\n1c2c(c3cc(Cl)ccc31)CCN(C)CC2)c1ccc(Cl)cc1Cl
False

Form field: inhibition at 1 µM at least 60%? Entry: CN1CCc2c(n(CC(=O)N3CCCC3)c3ccc(Cl)cc23)CC1
False

Form field: inhibition at 1 µM at least 60%? Entry: CN1CCc2c(n(CC(O)c3ccccc3F)c3ccc(Cl)cc23)CC1 (centres unmarked)
True

Form field: inhibition at 1 µM at least 60%? Entry: Cc1ccc2c(c1)c1c(n2CC(=O)N2CCNCC2)CCN(C)CC1
False

Form field: inhibition at 1 µM at least 60%? Entry: CN1CCc2c(n(CCc3ccccc3)c3ccc(Cl)cc23)CC1
True

Form field: inhibition at 1 µM at least 60%? Entry: Cc1ccc2c(c1)c1c(n2CC(O)c2ccc(Cl)cc2)CCN(C)CC1 (centres unmarked)
True

====

Reported inhibition at 1 µM is given for each of the following compounds.
Target: human recombinant adrenergic α2A receptor (Homo sapiens, UniProt P08913)
Construct: expressed in transfected cells; host or cells: insect Sf9 cells
Sequence (P08913 whole entry): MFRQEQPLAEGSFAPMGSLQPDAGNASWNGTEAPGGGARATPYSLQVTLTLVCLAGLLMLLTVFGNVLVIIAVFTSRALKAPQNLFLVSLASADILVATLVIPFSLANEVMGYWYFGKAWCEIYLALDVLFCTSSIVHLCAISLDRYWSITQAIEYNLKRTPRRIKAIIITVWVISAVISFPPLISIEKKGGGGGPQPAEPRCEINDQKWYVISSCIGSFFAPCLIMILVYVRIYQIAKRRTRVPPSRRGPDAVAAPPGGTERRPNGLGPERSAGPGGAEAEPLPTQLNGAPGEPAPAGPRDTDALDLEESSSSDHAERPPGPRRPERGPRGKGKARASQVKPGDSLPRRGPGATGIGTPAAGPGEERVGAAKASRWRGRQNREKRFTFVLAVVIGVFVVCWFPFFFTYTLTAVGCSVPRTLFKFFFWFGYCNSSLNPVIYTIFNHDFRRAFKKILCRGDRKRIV
Assay: Adrenergic alpha2A radioligand binding ([3H]MK-912)
Settings: compound at 1 μM; read-out: Adrenergic (1 μM) α2A, percent inhibition of specific binding
Please append the unit to your numeric answer.

{"columns": ["compound", "inhibition at 1 µM"],
 "data": [
  ["Cc1ccc2c(c1)c1c(n2CC(O)c2cccnc2)CCN(C)CC1 (stereo not drawn)", "69%"],
  ["Cc1ccc(C(O)Cn2c3c(c4cc(Cl)ccc42)CCN(C)CC3)cn1 (stereo not drawn)", "84%"]
]}

Name the reported inhibition at 1 µM value associated with the compound C/C(=C\n1c2c(c3cc(C)ccc31)CCN(C)CC2)c1ccc(F)cc1
94%

Name the reported inhibition at 1 µM value associated with the compound COc1ccc(C(O)Cn2c3c(c4cc(C)ccc42)CCN(C)CC3)cc1F (stereo not drawn)
99%

Name the reported inhibition at 1 µM value associated with the compound COc1ccc(C(O)Cn2c3c(c4cc(Cl)ccc42)CCN(C)CC3)cc1 (stereo not drawn)
97%

Name the reported inhibition at 1 µM value associated with the compound CN1CCc2c(n(CC(=O)N3CCOCC3)c3ccc(Cl)cc23)CC1
7%

====

Target: human recombinant serotonin (5-Hydroxytryptamine) 5-HT2C receptor (Homo sapiens)
Construct: expressed in transfected cells; host or cells: CHO-K1 cells
Sequence (P28335 33-458): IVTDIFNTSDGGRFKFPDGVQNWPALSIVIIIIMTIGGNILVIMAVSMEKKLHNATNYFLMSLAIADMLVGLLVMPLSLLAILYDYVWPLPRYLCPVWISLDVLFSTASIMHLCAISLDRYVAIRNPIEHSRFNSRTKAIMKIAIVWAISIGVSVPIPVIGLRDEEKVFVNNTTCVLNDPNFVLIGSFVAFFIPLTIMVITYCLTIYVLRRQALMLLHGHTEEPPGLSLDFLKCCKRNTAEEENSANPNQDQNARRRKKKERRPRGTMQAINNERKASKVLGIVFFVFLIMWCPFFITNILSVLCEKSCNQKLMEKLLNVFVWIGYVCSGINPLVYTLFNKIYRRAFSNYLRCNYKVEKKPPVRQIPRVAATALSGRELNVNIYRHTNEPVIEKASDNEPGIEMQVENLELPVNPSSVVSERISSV
Assay: Serotonin 5-HT2C radioligand binding ([3H]Mesulergine)
Details: compound at 1 μM; read-out: Serotonin (1 μM) 5-HT2C, percent inhibition of specific binding
quantity: inhibition at 1 µM (%)
The figure you give is taken to be in %; do not add the unit.

Field: example entries. Status: answers known.
{"columns": ["compound", "inhibition at 1 µM / %"],
 "data": [
  ["COc1ccc(/C=C/n2c3c(c4cc(C)ccc42)CCN(C)CC3)c(F)c1 [Compound No. 230]", 96],
  ["Cc1ccc2c(c1)c1c(n2CC(=O)N2CCNCC2)CCN(C)CC1 [Compound No. 224]", 11],
  ["Cc1ccc2c(c1)c1c(n2CC(O)c2ccc(F)cc2F)CCN(C)CC1 (stereo not shown) [Compound No. 59]", -3]
]}

Name the reported inhibition at 1 µM value associated with the compound Cc1ccc2c(c1)c1c(n2CCc2ccccc2Cl)CCN(C)CC1 [Compound No. 69]
-1

Name the reported inhibition at 1 µM value associated with the compound C/C(=C\n1c2c(c3cc(C)ccc31)CCN(C)CC2)c1ccccc1F [Compound No. 241]
97

====

Target: human recombinant dopamine D2L receptor (Homo sapiens)
Construct: expressed in transfected cells; host or cells: CHO cells
Test: Dopamine D2L radioligand binding ([3H]Spiperone)
Details: compound at 1 μM; read-out: Dopamine (1 μM) D2L, percent inhibition of specific binding
Reported inhibition at 1 µM is given for each of the following compounds.
The figure you give is taken to be in %; do not add the unit.

{"columns": ["compound", "tested on", "quantity", "readout unit", "recorded result"],
 "data": [
  ["Cc1ccc(C(O)Cn2c3c(c4cc(Cl)ccc42)CCN(C)CC3)cn1 (stereo not shown) [Compound No. 7]", "human recombinant dopamine D2L receptor (Homo sapiens)", "inhibition at 1 µM", "%", 15],
  ["CN1CCc2c(n(CC(O)c3ccccc3F)c3ccc(Cl)cc23)CC1 (stereo not shown) [Compound No. 40]", "human recombinant dopamine D2L receptor (Homo sapiens)", "inhibition at 1 µM", "%", 46],
  ["COc1ccc(/C(C)=C/n2c3c(c4cc(Cl)ccc42)CCN(C)CC3)cc1F [Compound No. 157]", "human recombinant dopamine D2L receptor (Homo sapiens)", "inhibition at 1 µM", "%", 24]
]}

Name the reported inhibition at 1 µM value associated with the compound C/C(=C\n1c2c(c3cc(C)ccc31)CCN(C)CC2)c1ccc(F)cc1 [Compound No. 34]
90

Name the reported inhibition at 1 µM value associated with the compound COc1ccc(C(O)Cn2c3c(c4cc(C)ccc42)CCN(C)CC3)c(F)c1 (stereo not shown) [Compound No. 50]
34

Name the reported inhibition at 1 µM value associated with the compound C/C(=C\n1c2c(c3cc(C)ccc31)CCN(C)CC2)c1ccncc1 [Compound No. 253]
55

Name the reported inhibition at 1 µM value associated with the compound COc1ccc(C(O)Cn2c3c(c4cc(C)ccc42)CCN(C)CC3)cc1OC (stereo not shown) [Compound No. 227]
5

Name the reported inhibition at 1 µM value associated with the compound Cc1ccc2c(c1)c1c(n2CC(O)c2ccccc2)CCN(C)CC1 (stereo not shown) [Compound No. 25]
43

Name the reported inhibition at 1 µM value associated with the compound Cc1ccc(CCn2c3c(c4cc(Cl)ccc42)CCN(C)CC3)cc1 [Compound No. 46]
79

Name the reported inhibition at 1 µM value associated with the compound Cc1ccc2c(c1)c1c(n2CC(=O)N2CCNCC2)CCN(C)CC1 [Compound No. 224]
-2
